Origin of the recorded values: paper PMC7261193

# measured-target: T1, GST-Yap8 WT (Saccharomyces cerevisiae, UniProt Q06596 1-294)
# T1 sequence: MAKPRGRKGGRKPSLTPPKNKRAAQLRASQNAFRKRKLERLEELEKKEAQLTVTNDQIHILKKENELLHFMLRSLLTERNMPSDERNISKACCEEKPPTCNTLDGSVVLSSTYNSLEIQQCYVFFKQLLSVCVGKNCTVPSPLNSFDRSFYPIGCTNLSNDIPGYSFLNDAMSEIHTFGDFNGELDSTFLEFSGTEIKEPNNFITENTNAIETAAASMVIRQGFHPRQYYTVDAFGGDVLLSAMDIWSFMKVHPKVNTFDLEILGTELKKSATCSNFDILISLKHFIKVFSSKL
# experiment: fluorescence anisotropy; series b; FA: 10 mM Tris-HCl pH 8, 50 mM NaCl, 0.5% NP-40, 1 mM DTT, 5% glycerol, 1 nM DNA, 25C (half volume protein elution buffer). Biotin EMSA: LightShift 1x buffer, 50 ng poly(dI-dC), 2.5% glycerol, 0.05% NP-40, 5 mM MgCl2, 20 fmol probe, RT 20 min. 32P EMSA: 10 mM Tris-HCl pH 8.0, 50 mM NaCl, 1 mM DTT, 0.05% NP-40, 100 ng poly(dI-dC), 6% glycerol, 4C 30 min
# condition: protein: recombinant; tags: GST (N-term); chain copies: 2; label: 5' FAM; blunt
measured-attribute: Kd (µM)
Please reply with the bare figure in µM and do not write the unit itself.

Quickly give me recorded Kd for ACR3-WT (FAM) (dsDNA) DNA 1: CTTTTTGTTTGATTAATAATCAACTTTAGCG DNA 2: CGCTAAAGTTGATTATTAATCAAACAAAAAG
0.0108
